measured_on: human orexin-2 receptor (Homo sapiens (Human))
Sequence (O43614 whole entry): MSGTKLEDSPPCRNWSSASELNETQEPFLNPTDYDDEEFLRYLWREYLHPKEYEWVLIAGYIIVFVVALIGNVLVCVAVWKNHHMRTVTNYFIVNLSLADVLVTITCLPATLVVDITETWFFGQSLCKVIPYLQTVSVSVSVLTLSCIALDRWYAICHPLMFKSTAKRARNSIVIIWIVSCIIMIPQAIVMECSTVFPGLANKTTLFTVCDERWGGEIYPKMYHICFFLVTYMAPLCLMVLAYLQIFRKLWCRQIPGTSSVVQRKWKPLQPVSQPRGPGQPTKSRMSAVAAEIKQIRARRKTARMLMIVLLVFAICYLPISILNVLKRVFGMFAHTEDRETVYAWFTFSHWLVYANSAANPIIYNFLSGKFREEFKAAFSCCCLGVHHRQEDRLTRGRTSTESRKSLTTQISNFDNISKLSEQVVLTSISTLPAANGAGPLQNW
assay_notes: In vitro assay: intracellular calcium measurements (FLIPR), antagonistic activity
measurement_conditions: CHO cells expressing human orexin-2 receptor, orexin-A agonist, geometric mean, read-out: IC50 Ox2
Label 1 (yes) when IC50 is strictly below 20 nM; otherwise label 0 (no).

{"molecule": "Cc1c(Cl)ccc2[nH]c([C@]3(C)CCCN3C(=O)c3nc(-c4cccc(F)c4F)sc3-c3ccc(F)cc3)nc12 [Ex. 5.251]", "measured_on": "human orexin-2 receptor (Homo sapiens (Human))", "group_label": "0 (no)"}
{"molecule": "COc1ccc(-c2ccc(C)cc2C(=O)N2CCC[C@@]2(C)c2nc3cc(C(F)(F)F)c(Cl)cc3[nH]2)cc1 [Ex. 5.150]", "measured_on": "human orexin-2 receptor (Homo sapiens (Human))", "group_label": "0 (no)"}
{"molecule": "COc1ccc2nc([C@@H]3CCCN3C(=O)c3ccccc3-c3ccc(C)c(C)c3)[nH]c2c1 [Ex. 1.26]", "measured_on": "human orexin-2 receptor (Homo sapiens (Human))", "group_label": "0 (no)"}
{"molecule": "C=C1C[C@@H](c2nc3ccc(Cl)c(C)c3[nH]2)N(C(=O)c2nc(C)sc2-c2cccc(Br)c2)C1 [Ex. 6.123]", "measured_on": "human orexin-2 receptor (Homo sapiens (Human))", "group_label": "1 (yes)"}
{"molecule": "C=C1C[C@@H](c2nc3cc(Cl)c(C)cc3[nH]2)N(C(=O)c2nc(C)sc2-c2ccc(C)c(C)c2)C1 [Ex. 6.55]", "measured_on": "human orexin-2 receptor (Homo sapiens (Human))", "group_label": "1 (yes)"}

IN: I wonder whether Cc1nc(C(=O)N2CC[C@H](C)[C@H]2c2nc3cc(C(F)(F)F)ccc3[nH]2)c(-c2ccc(F)c(F)c2)s1 [Ex. 4.143] has IC50 below 20 nM. Can you tell?
OUT: 0 (no)

IN: And for Cc1ccc(C(=O)N2CC[C@H](C)[C@H]2c2nc3cc(Cl)c(C)cc3[nH]2)c(-c2ccccn2)c1 [Ex. 4.109] ?
OUT: 0 (no)

IN: Would you kindly repeat that for C=C1C[C@@H](c2nc3cc(C(C)(C)C)ccc3[nH]2)N(C(=O)c2nc(C)sc2-c2ccc(C)c(C)c2)C1 [Ex. 6.57] ?
OUT: 1 (yes)
